Literature roundup of Ubiquitin carboxyl-terminal hydrolase 7 (Homo sapiens, UniProt Q93009) data, read-out IC50.

| compound | system.under.test | IC50 |
| --- | --- | --- |
| N#CN1Cc2cnn(-c3cccc(NS(=O)(=O)C4CC4)c3)c2C1 | Ubiquitin carboxyl-terminal hydrolase 7 (Homo sapiens, UniProt Q93009) | 10000 to 30000 nM |

# assay system Ubiquitin carboxyl-terminal hydrolase 7 (Homo sapiens, UniProt Q93009): give IC50 of "O=C1CCC(=O)N1Cc1cc2nccc(-c3cc(C(F)(F)F)cc4c3N([C@@H]3CNC5(CCC5)C3)CCC4)c2s1"
< 10 nM

Param request: IC50 | system Ubiquitin carboxyl-terminal hydrolase 7 (Homo sapiens, UniProt Q93009) | item "CC(=O)NC(C)(C)c1cc2nccc(-c3cc(Cl)cc4c3O[C@@H](C(=O)N3CCNCC3)C4)c2s1"
1000 to 10000 nM

Enter IC50 (test system Ubiquitin carboxyl-terminal hydrolase 7 (Homo sapiens, UniProt Q93009)) for "OCc1cc2ncnc(-c3cc(Cl)cc4c3O[C@@H](c3onc5c3CNCC5)C4)c2o1"
< 1000 nM

Report IC50 from Ubiquitin carboxyl-terminal hydrolase 7 (Homo sapiens, UniProt Q93009) testing of "Clc1cc2c(c(-c3ccnc4c3CC3(COCOC3)C4)c1)O[C@@H](c1onc3c1CNCC3)C2"
< 1000 nM

Fill in: IC50 on Ubiquitin carboxyl-terminal hydrolase 7 (Homo sapiens, UniProt Q93009), entry "COc1ccc(-n2ncc3c2CN(C#N)C3)cc1"
10000 to 30000 nM

State, for Ubiquitin carboxyl-terminal hydrolase 7 (Homo sapiens, UniProt Q93009), measured IC50 of the compound listed here: "CN(C)C1CCN(C(=O)[C@H]2Cc3cc(Cl)cc(-c4ccnc5cc(CO)sc45)c3O2)CC1"
< 1000 nM

Would you please give the reported IC50 of O=C1C2CC2C(=O)N1Cc1cc2nccc(-c3cc(Cl)cc4c3N([C@@H]3CN[C@@H](CO)C3)CCO4)c2s1 (some centres unmarked) with Ubiquitin carboxyl-terminal hydrolase 7 (Homo sapiens, UniProt Q93009)?
< 10 nM
